Target: Smo wild type (Homo sapiens)
Sequence (Q99835 28-787): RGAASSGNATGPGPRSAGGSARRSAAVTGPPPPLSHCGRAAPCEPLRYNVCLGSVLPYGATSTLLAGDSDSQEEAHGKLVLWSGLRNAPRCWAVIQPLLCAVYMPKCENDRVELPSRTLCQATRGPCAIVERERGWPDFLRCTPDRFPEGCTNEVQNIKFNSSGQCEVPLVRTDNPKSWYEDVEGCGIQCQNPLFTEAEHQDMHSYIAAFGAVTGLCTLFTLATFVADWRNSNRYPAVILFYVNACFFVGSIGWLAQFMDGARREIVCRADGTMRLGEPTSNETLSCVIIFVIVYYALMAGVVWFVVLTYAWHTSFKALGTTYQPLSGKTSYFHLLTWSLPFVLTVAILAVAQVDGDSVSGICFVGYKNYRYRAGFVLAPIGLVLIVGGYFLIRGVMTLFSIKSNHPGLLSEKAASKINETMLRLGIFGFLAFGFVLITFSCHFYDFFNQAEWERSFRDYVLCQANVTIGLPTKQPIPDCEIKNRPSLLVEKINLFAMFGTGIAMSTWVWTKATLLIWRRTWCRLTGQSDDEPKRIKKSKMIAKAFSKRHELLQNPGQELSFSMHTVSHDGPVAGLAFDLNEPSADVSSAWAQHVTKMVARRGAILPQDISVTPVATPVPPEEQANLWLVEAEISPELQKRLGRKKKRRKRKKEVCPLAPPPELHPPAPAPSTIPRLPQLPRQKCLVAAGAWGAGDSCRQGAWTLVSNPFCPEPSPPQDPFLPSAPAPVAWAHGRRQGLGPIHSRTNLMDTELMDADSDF
Assay: Reporter assay of C3H10T1/2-Gli-Luc cells transfected with wild-type Smo, without SAG
Conditions: C3H10T1/2 cells transfected with pLPCX-SMO, no SAG, 48 hr; read-out: Inhibition of C3H10T1/2-Gli-Luc-Smo-WT [IC50
pIC50: −log10 of the molar value.
property: pIC50

>  <inputSmiles>
COc1cccc(C)c1NC(=O)c1ccc(Nc2ncc(SC)c(-c3ccc(OC(F)(F)F)cc3)n2)cc1

>  <reported>
6.00 to 7.00

$$$$

Lab note: COc1ccc(CN2CCOCC2)cc1NC(=O)c1ccc(Nc2ncc(SC)c(-c3ccc(F)cc3)n2)cc1 gave pIC50 of 6.00 to 7.00

// pIC50 lookup, compound = CSc1cnc(Nc2ccc(C(=O)Nc3ccccc3)cc2)nc1-c1cccnc1F , result: 6.00 to 7.00

Memo: CSc1cnc(Nc2ccc(C(=O)Nc3cc(CN4CCOCC4)ccc3F)cc2F)nc1-c1ccc(F)cc1 , reported pIC50: > 7.00

pIC50 in this record for CSc1cnc(Nc2ccc(C(=O)Nc3ccccc3C)cc2F)nc1-c1cccnc1F : 6.00 to 7.00

Entry CSc1cnc(Nc2ccc(C(=O)Nc3ccccc3C)cc2)nc1-c1cccnc1F , pIC50 reported as 6.00 to 7.00

Record summary for CCN(CC)Cc1ccc(C)c(NC(=O)c2ccc(Nc3ncc(OC)c(-c4ccc(OC(F)(F)F)cc4)n3)c(F)c2)c1 : reported pIC50 = > 7.00

// recorded pIC50 for CSc1cnc(Nc2ccc(C(=O)Nc3c(C)cccc3C)cc2)nc1-c1cccnc1F : > 7.00
